Target: Glucocorticoid receptor (Homo sapiens, UniProt P04150)
Sequence (P04150 whole entry): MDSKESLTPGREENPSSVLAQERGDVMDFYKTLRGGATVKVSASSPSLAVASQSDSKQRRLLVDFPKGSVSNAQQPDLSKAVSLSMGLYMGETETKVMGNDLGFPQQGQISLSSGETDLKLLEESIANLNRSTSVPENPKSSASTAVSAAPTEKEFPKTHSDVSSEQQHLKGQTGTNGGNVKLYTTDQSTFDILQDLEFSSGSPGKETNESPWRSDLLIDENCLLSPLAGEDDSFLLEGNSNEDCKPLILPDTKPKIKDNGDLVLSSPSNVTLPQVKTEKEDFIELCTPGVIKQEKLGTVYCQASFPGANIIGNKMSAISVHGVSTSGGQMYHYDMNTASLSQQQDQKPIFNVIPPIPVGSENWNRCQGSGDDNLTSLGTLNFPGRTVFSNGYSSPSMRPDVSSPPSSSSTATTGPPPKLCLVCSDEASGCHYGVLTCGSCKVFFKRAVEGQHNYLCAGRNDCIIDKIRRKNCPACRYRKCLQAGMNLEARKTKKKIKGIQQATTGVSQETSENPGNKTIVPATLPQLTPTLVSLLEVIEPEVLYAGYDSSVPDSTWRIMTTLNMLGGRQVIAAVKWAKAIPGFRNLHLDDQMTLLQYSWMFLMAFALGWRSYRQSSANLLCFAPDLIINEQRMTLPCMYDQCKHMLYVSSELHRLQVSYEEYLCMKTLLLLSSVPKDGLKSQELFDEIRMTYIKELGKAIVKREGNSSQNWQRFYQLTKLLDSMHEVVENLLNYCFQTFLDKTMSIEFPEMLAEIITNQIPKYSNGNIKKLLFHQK
Experiment: Modulation of glucocorticoid receptor (unknown origin) transfected in human HeLa cells assessed as transrepression by measuring inhibition of PMA-induced AP-1 signalling incubated for 18 hrs by dual-luciferase reporter based assay
Format: cell-based
pIC50: −log10 of the molar value.
REPORTED_METRIC: pIC50

Would you please look over these solved cases?
O=C(c1ccco1)N1CCCc2cc(NS(=O)(=O)c3ccc(Cl)c([N+](=O)[O-])c3)ccc21; 6.00
COc1ccc(C)c(C)c1S(=O)(=O)Nc1ccc2c(c1)CCCN2C(=O)c1ccco1; 6.00
O=C(c1ccco1)N1CCCc2cc(NS(=O)(=O)c3ccc([N+](=O)[O-])cc3)ccc21; 5.37

a: COc1cc(C)c(Cl)cc1S(=O)(=O)Nc1ccc2c(c1)CCCN2C(=O)c1ccc(Cl)cc1
b: CCCCc1ccc(S(=O)(=O)Nc2ccc3c(c2)CCCN3C(=O)c2ccco2)cc1
Query :: Looking at a and b , which one comes out lower in pIC50 terms? When you have decided, please share the label of that item.
Result :: b
(b: 5.43, a: 5.74)

----------
Biological target: Glucocorticoid receptor (Homo sapiens, UniProt P04150)
Assay: Modulation of glucocorticoid receptor (unknown origin) transfected in human HeLa cells assessed as transrepression by measuring inhibition of TNF-alpha induced NF-kappaB signalling incubated for 18 hrs by dual-luciferase reporter based assay
Type: cell-based
REPORTED_METRIC: IC50 (nM)

# example entries with known answers
COc1cc(C)c(Cl)cc1S(=O)(=O)Nc1ccc2c(c1)CCCN2C(=O)c1ccc(Cl)cc1; 100
O=C(c1ccco1)N1CCCc2cc(NS(=O)(=O)c3ccc4c(c3)CCO4)ccc21; 1320
Cc1ccc(S(=O)(=O)N(c2ccc3c(c2)CCCN3C(=O)c2ccco2)S(=O)(=O)c2ccc(C)cc2)cc1; 90
COc1cc(C)c(Cl)cc1S(=O)(=O)Nc1ccc2c(c1)CCCN2C(C)=O; 470

a: O=C(c1ccco1)N1CCCc2cc(N(S(=O)(=O)c3cc4ccccc4s3)S(=O)(=O)c3cc4ccccc4s3)ccc21
b: COc1cc(C)c(Cl)cc1S(=O)(=O)Nc1ccc2c(c1)CCCN2C(=O)N(C)C
Query :: Hi, I'm comparing two records. Which one has the lower IC50, a or b ? Mark your selection by writing its label.
Result :: b

----------
Recorded pIC50 values for a group of compounds are listed next.
Target: Glucocorticoid receptor (Homo sapiens, UniProt P04150)
Experiment: Modulation of glucocorticoid receptor (unknown origin) transfected in human HeLa cells assessed as transrepression by measuring inhibition of PMA-induced AP-1 signalling incubated for 18 hrs by dual-luciferase reporter based assay
Format: cell-based
pIC50: −log10 of the molar value.

NC(=O)c1ccc(S(=O)(=O)Nc2ccc3c(c2)CCCN3C(=O)c2ccco2)cc1; < 5.00
O=C(c1ccco1)N1CCCc2cc(NS(=O)(=O)c3ccc(F)cc3)ccc21; < 5.00
COc1cc(C)c(C)cc1S(=O)(=O)Nc1ccc2c(c1)CCCN2C(=O)C1CCCCC1; < 5.00
CCCCc1ccc(C(=O)N2CCCc3cc(NS(=O)(=O)c4cc(Cl)c(C)cc4OC)ccc32)cc1; < 5.00

Query :: # input compound: CCS(=O)(=O)N(c1ccc2c(c1)CCCN2C(=O)c1ccco1)S(=O)(=O)CC ; wanted: its pIC50
Result :: < 4.30

----------
Molecular target: Glucocorticoid receptor (Homo sapiens, UniProt P04150)
Test: Binding affinity to glucocorticoid receptor (unknown origin) by Lanthascreen TR-FRET competition binding assay
REPORTED_METRIC: IC50

O=C(c1ccco1)N1CCCc2cc(N(S(=O)(=O)c3cc4ccccc4s3)S(=O)(=O)c3cc4ccccc4s3)ccc21; > 50 µM
N#Cc1ccc(S(=O)(=O)N(c2ccc3c(c2)CCCN3C(=O)c2ccco2)S(=O)(=O)c2ccc(C#N)cc2)cc1; > 30 µM

Query :: Can you look up IC50 on Glucocorticoid receptor (Homo sapiens, UniProt P04150) for COc1cc(C)c(Cl)cc1S(=O)(=O)Nc1ccc2c(c1)CCCN2C(=O)c1ccncc1 ?
Result :: > 50 µM

----------
Molecular target: UniProt P04150
Experiment: Binding affinity to glucocorticoid receptor (unknown origin) by Lanthascreen TR-FRET competition binding assay
Listing of recorded IC50 by entry.

Consider the following illustrative entries.
COc1ccc(S(=O)(=O)Nc2ccc3c(c2)CCCN3C(=O)c2ccco2)cc1; > 50 µM
O=C(c1ccco1)N1CCCc2cc(NS(=O)(=O)c3ccc(-c4ccccc4)cc3)ccc21; 0.09 µM
COc1cc(C)c(Cl)cc1S(=O)(=O)Nc1ccc2c(c1)CCCN2C(=O)c1ccc(C)cc1; > 50 µM

Query :: Value lookup for IC50; key = CCCCS(=O)(=O)N(c1ccc2c(c1)CCCN2C(=O)c1ccco1)S(=O)(=O)CCCC
Result :: > 50 µM

----------
This listing pairs molecules with measured pIC50.
Molecular target: Glucocorticoid receptor (Homo sapiens)
Assay: Modulation of glucocorticoid receptor (unknown origin) transfected in human HeLa cells assessed as transrepression by measuring inhibition of PMA-induced AP-1 signalling incubated for 18 hrs by dual-luciferase reporter based assay
Format: cell-based
pIC50: −log10 of the molar value.

The examples below pair each entry with its known result.
COc1cc(C)c(Cl)cc1S(=O)(=O)Nc1ccc2c(c1)CCCN2C(=O)C1CCCCC1; < 5.00
O=C(c1ccco1)N1CCCc2cc(NS(=O)(=O)c3ccc4ccccc4c3)ccc21; 5.68

Now take the following molecule into account.
Query :: GET /values?readout=pIC50&system=Glucocorticoid receptor (Homo sapiens)&item= COc1cccc(Cl)c1S(=O)(=O)Nc1ccc2c(c1)CCCN2C(=O)c1ccco1
Result :: < 5.00

----------
Biological target: Glucocorticoid receptor (Homo sapiens)
Test: Binding affinity to glucocorticoid receptor (unknown origin) by Lanthascreen TR-FRET competition binding assay
pIC50: −log10 of the molar value.
REPORTED_METRIC: pIC50

Some solved cases for reference:
CCCCc1ccc(C(=O)N2CCCc3cc(NS(=O)(=O)c4cc(Cl)c(C)cc4OC)ccc32)cc1; < 4.30
COc1ccccc1S(=O)(=O)Nc1ccc2c(c1)CCCN2C(=O)c1ccco1; < 5.00

Query :: Given O=C(c1ccco1)N1CCCc2cc(N(S(=O)(=O)c3ccc(F)cc3)S(=O)(=O)c3ccc(F)cc3)ccc21 , state its recorded pIC50.
Result :: < 4.30

----------
Target: Glucocorticoid receptor (Homo sapiens)
Experiment: Modulation of glucocorticoid receptor (unknown origin) transfected in human HeLa cells assessed as transrepression by measuring inhibition of PMA-induced AP-1 signalling incubated for 18 hrs by dual-luciferase reporter based assay
Type: cell-based
REPORTED_METRIC: IC50 (µM)

O=C(c1ccco1)N1CCCc2cc(N(S(=O)(=O)c3cc4ccccc4s3)S(=O)(=O)c3cc4ccccc4s3)ccc21; 3.19
O=C(c1ccco1)N1CCCc2cc(NS(=O)(=O)c3ccccc3)ccc21; 3.83

----------
Molecular target: Glucocorticoid receptor (Homo sapiens, UniProt P04150)
Experiment: Modulation of glucocorticoid receptor (unknown origin) transfected in human HeLa cells assessed as transrepression by measuring inhibition of PMA-induced AP-1 signalling incubated for 18 hrs by dual-luciferase reporter based assay
Format: cell-based
pIC50: −log10 of the molar value.
REPORTED_METRIC: pIC50

As a guide, the following entries are already answered.
COc1cc(C)c(Cl)cc1S(=O)(=O)Nc1ccc2c(c1)CCCN2C(=O)c1ccc(C)cc1; 5.95
N#Cc1ccc(S(=O)(=O)N(c2ccc3c(c2)CCCN3C(=O)c2ccco2)S(=O)(=O)c2ccc(C#N)cc2)cc1; 5.50
O=C(c1ccco1)N1CCCc2cc(NS(=O)(=O)c3ccc4c(c3)CCO4)ccc21; 5.30

A: O=C(c1ccco1)N1CCCc2cc(NS(=O)(=O)c3ccc4c(c3)CCCC4)ccc21
B: O=C(c1ccco1)N1CCCc2cc(NS(=O)(=O)c3cccs3)ccc21
C: CN(C)c1cccc2c(S(=O)(=O)Nc3ccc4c(c3)CCCN4C(=O)c3ccco3)cccc12
Query :: Order by pIC50, ascending. Quick reminder: the answer is the labels in the order asked.
Result :: B, A, C
(B: 5.03, A: 5.39, C: 5.78)
